Each entry below lists one item and its recorded glycan array binding signal (z-score) value.
biological target: GlcNAc(b1-4)[GlcNAc(b1-6)]GalNAc; experiment: glycan array binding signal (z-score within array); higher = stronger binding; conditions: glycan notation: IUPAC condensed, linker removed
This excerpt belongs to a sample that is enriched for the strongest signals.

Binder: AT5G01260(PC)(40) (Arabidopsis thaliana), Q9LFB0 (protein) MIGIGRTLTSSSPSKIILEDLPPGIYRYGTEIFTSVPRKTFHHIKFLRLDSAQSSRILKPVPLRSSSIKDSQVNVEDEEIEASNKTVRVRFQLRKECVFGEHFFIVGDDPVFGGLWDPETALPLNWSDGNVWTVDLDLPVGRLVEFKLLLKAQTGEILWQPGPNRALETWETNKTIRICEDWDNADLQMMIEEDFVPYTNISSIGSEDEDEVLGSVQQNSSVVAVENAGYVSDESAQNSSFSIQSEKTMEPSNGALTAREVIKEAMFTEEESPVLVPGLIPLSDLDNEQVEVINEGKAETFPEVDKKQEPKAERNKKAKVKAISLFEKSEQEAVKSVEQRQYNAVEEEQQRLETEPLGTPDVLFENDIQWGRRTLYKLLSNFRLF
glycan array binding signal (z-score): 0.541
--
Binder: SEX4 (Arabidopsis thaliana), Q944A8 (protein) TQAMGAVLTYRHELGMNYNFIRPDLIVGSCLQTPEDVDKLRKIGVKTIFCLQQDPDLEYFGVDISSIQAYAKKYSDIQHIRCEIRDFDAFDLRMRLPAVVGTLYKAVKRNGGVTYVHCTAGMGRAPAVALTYMFWVQGYKLMEAHKLLMSKRSCFPKLDAIRNATIDILTGLKRKTVTLTLKDKGFSRVEISGLDIGWGQRIPLTLGKGTGFWILKRELPEGQFEYKYIIDGEWTHNEAEPFIGPNKDGHTNNYAKVVDDPTSVDGTTRERLSSEDPELLEEERSKLIQFLETCSEAEV
glycan array binding signal (z-score): -0.489
--
Binder: AT1G73650(15) (Arabidopsis thaliana), F4HRY1 (protein) MGTVLDSHFLALTAIVTVIYQFIFFVITALFKFDQVTDFAGSTNFVILAVLTLVLKASWHFRQIVLTLLVVVWGLRLGIFLLMETRILQWGEDRRFDEQRGNIVRLIIFWTLQAVWVWTVSLPLTLVNASDGGGSLKPADVIGWTMETWVFGFLIEAAADQQKLSFKNSPENRGKWCDVGVWKYSRHPNYFGEMETLLWWGIFVAASPVLEGAEYLVIFGPLFLTLLLLFVSGIPLLEASADKKHGNSGAYRSYKKTTSPLILFPRGVYGNLPGWFKTVFLFEFPFYSRNLPQEGRLQNSKEKEVKDD
glycan array binding signal (z-score): -0.41
--
Binder: Dectin-1 CTLD (Mus musculus), Q6QLQ4 (protein) MKYHSHIENLDEDGYTQLDFSTQDIHKRPRGSEKGSRAPSSPWRPIAVGLGILCFVVVVVAAVLGALAFWRHNSGRNPEEKDNFLSRNKENHKPTESSLDEKVAPSKASQTTGGFSQSCLPNWIMHGKSCYLFSFSGNSWYGSKRHCSQLGAHLLKIDNSKEFEFIESQTSSHRINAFWIGLSRNQSEGPWFWEDGSAFFPNSFQVRNTVPQESLLHNCVWIHGSEVYNQICNTSSYSICEKEL
glycan array binding signal (z-score): 9.99

Taken from the supplement of paper PMC8728848.
